Data provenance is patent US5166214A.

molecular target: Acyl-CoA: Cholesterol Acyltransferase (ACAT) (Rattus norvegicus, UniProt Q7TQM4); construct: Microsomes were obtained by differential centrifugation; from tissue; host or cells: liver microsomes of male Sprague Dawley rats; assay: Inhibition of acyl-CoA: cholesterol acyltransferase (ACAT) in hepatic microsomes (in vitro); type: biochemical, rat (male Sprague Dawley); conditions: rat hepatic microsomes, 75 μM 14C-oleoyl-CoA, pH 7.4, 37° C.; read-out: In Vitro ACAT IC50
Define the label as rule met when IC50 is strictly less than 60 nM and as rule not met in all remaining cases.

Qu. Would you kindly verify if IC50 of CCCCCCCN(CCCCCSc1nc(-c2ccccc2)c(-c2ccccc2)[nH]1)C(=O)NC [Example 7] is strictly less than 60 nM?
Ans. rule met

Qu. Would you kindly verify if IC50 of CCCCCCCN(CCCCCSc1nc(-c2ccc(OC)cc2)c(-c2ccc(OC)cc2)[nH]1)C(=O)Cc1ccc(F)cc1F [Example 351] is strictly less than 60 nM?
Ans. rule not met

Qu. Would you kindly verify if IC50 of CCCCCCCN(CCCCCSc1nc(-c2ccc(OC)cc2)c(-c2ccc(OC)cc2)[nH]1)C(=O)OCC(C)C [Example 457] is strictly less than 60 nM?
Ans. rule not met

Qu. Would you kindly verify if IC50 of CCCCCCCN(CCCCCSc1nc(-c2ccccc2)c(-c2ccccc2)[nH]1)C(=O)Nc1ccccc1 [Example 2] is strictly less than 60 nM?
Ans. rule met

Qu. Would you kindly verify if IC50 of CCCCCCCN(CCCCCSc1nc(-c2ccc(OC)cc2)c(-c2ccc(OC)cc2)[nH]1)C(=O)NC(C)C [Example 202] is strictly less than 60 nM?
Ans. rule not met

---

Each item that follows carries a reported log10 of IC50.
Target: Acyl-CoA: Cholesterol Acyltransferase (ACAT) (Rattus norvegicus, UniProt Q7TQM4)
Construct: Microsomes were obtained by differential centrifugation; from tissue; host or cells: liver microsomes of male Sprague Dawley rats
Sequence (Q7TQM4 1-524): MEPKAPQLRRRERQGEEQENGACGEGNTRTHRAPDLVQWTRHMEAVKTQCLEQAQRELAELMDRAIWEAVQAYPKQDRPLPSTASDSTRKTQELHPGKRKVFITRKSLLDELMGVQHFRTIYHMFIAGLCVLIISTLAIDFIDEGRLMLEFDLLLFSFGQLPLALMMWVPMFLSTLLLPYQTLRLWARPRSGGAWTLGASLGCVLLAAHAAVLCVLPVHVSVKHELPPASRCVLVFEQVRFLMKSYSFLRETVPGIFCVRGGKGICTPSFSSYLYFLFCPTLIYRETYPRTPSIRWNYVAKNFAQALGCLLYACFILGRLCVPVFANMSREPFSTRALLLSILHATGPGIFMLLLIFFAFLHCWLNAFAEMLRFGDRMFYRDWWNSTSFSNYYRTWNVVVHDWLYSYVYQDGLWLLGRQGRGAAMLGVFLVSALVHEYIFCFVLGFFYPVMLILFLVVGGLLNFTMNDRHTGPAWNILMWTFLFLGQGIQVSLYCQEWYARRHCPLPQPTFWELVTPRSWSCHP
Assay: Inhibition of acyl-CoA: cholesterol acyltransferase (ACAT) in hepatic microsomes (in vitro)
Type: biochemical, rat (male Sprague Dawley)
Conditions: rat hepatic microsomes, 75 μM 14C-oleoyl-CoA, pH 7.4, 37° C.; read-out: In Vitro ACAT IC50
Quick note: numbers are log10 of IC50, with nM as the unit.

Known log10 of IC50 results, listed for orientation:
[[record]]
compound = "CCCCCCCN(CCCCCSc1ncc[nH]1)C(=O)Nc1ccc(F)cc1F [Example 186]"
experimentalreadout = "log10 of IC50"
observedmeasurement = 3.45

[[record]]
compound = "CCCCCCCN(CCCCCSc1nc(-c2ccccc2)c(-c2ccccc2)[nH]1)C(=O)OCCC [Example 407]"
experimentalreadout = "log10 of IC50"
observedmeasurement = 1.60

[[record]]
compound = "CCCCCCCN(CCCCCSc1nc(-c2ccccc2)c(-c2ccccc2)[nH]1)C(=O)Nc1ccc(OC)cc1OC [Example 5]"
experimentalreadout = "log10 of IC50"
observedmeasurement = 1.08

[[record]]
compound = "CCCCCCCN(CCCCCSc1nc(-c2ccc(O)cc2)c(-c2ccc(O)cc2)[nH]1)C(=O)Nc1ccc(F)cc1F [Example 209]"
experimentalreadout = "log10 of IC50"
observedmeasurement = 3.15

[[record]]
compound = "CCCCCCCN(CCCCCSc1nc(-c2ccc(OC)cc2)c(-c2ccc(OC)cc2)[nH]1)C(=O)Nc1ccc(F)cc1F [Example 118]"
experimentalreadout = "log10 of IC50"
observedmeasurement = 2.23

[[record]]
compound = "CCCCCCCN(CCCCCSc1nc(-c2ccc(OC)cc2)c(-c2ccc(OC)cc2)[nH]1)C(=O)Cc1c(F)c(F)c(F)c(F)c1F [Example 350]"
experimentalreadout = "log10 of IC50"
observedmeasurement = 2.78

[[record]]
compound = "CCCCCCCN(CCCCCSc1nc(-c2ccc(N(C)C)cc2)c(-c2ccc(N(C)C)cc2)[nH]1)C(=O)Nc1ccc(F)cc1F [Example 197]"
experimentalreadout = "log10 of IC50"
observedmeasurement = 2.08

[[record]]
compound = "CCCCCCCCNC(=O)N(CCCCCSc1nc(-c2ccccc2)c(-c2ccccc2)[nH]1)c1ccccc1 [Example 207]"
experimentalreadout = "log10 of IC50"
observedmeasurement = 0.95

[[record]]
compound = "CCCCCCCN(CCCCCSc1nc(-c2ccccc2)c(-c2ccccc2)[nH]1)C(=O)CCC [Example 341]"
experimentalreadout = "log10 of IC50"
observedmeasurement = 0.48

[[record]]
compound = "CCCCCCCN(CCCCCSc1nc(-c2ccco2)c(-c2ccco2)[nH]1)C(=O)Nc1ccc(F)cc1F [Example 201]"
experimentalreadout = "log10 of IC50"
observedmeasurement = 2.30


Record for CCCCCCCN(CCCCCSc1nc(-c2ccccn2)c(-c2ccccn2)[nH]1)C(=O)Nc1ccc(F)cc1F [Example 107] under target or system Acyl-CoA: Cholesterol Acyltransferase (ACAT) (Rattus norvegicus, UniProt Q7TQM4): log10 of IC50 reported as 3.00

Record for CCCCCCCN(CCCCCSc1nc(-c2ccc(Cl)cc2)c(-c2ccc(Cl)cc2)[nH]1)C(=O)Nc1ccc(F)cc1F [Example 137] under target or system Acyl-CoA: Cholesterol Acyltransferase (ACAT) (Rattus norvegicus, UniProt Q7TQM4): log10 of IC50 reported as 1.88
